FYI, the data here is from PubChem BioAssay AID1851.

# measured-on: Cytochrome P450 2C19 (Homo sapiens)
# protocol-text: Cytochrome panel assay with activity outcomes
# test-conditions: recombinant CYP, pro-luciferin dealkylation, luminescence, p450-cyp2c19; series mostly up to 57.1 µM
Hit rate of the full screen: of about 16,000 compounds, about 5,800 (36%) were called active. Another 23% or so got no clear call; they are omitted. Calls come from the whole dose curve; as a rule, active = well fitted curve in the direction sought with a large enough effect; inconclusive = small, poorly fitted or top-dose-only effect, or effect the other way; inactive = no such curve, though single readings can be large or run the other way. The list shows a part of the results.
Outcomes: True = active, False = inactive

>>> classification("COc1cccc(-n2ccnc2SCC(=O)Nc2nccs2)c1")
"True"
>>> classification("O=C(Nc1cccc(-c2cn3cccnc3n2)c1)c1ccco1")
"False"
>>> classification("Cc1ccc(N2CC(C(=O)Nc3cc(C)on3)CC2=O)cc1 (stereo not drawn)")
"True"
>>> classification("Cc1cc(C)cc(C(=O)N(C)[C@H](Cc2ccc(-c3ccccc3)cc2)C(=O)N[C@@H](Cc2c[nH]c3ccccc23)C(=O)O)c1")
"True"
>>> classification("S=c1[nH]nc(CSCc2ccccc2Cl)n1-c1ccccc1")
"True"
>>> classification("N#Cc1cccc(-c2nccc(-n3ccnc3)n2)c1")
"True"
>>> classification("Cc1cc(NC(=O)C2C3C(=O)N(Cc4ccc(Cl)cc4)C(C(=O)NC(C)(C)C)C34C=CC2(C)O4)no1 (stereo not drawn)")
"False"
>>> classification("Cc1ccc2nc(SCC(=O)NCc3cccs3)c(C#N)cc2c1")
"False"
>>> classification("CCNc1ncc2nc(-c3cccc(C#N)c3)c(=O)n(C)c2n1")
"False"
>>> classification("O=S(=O)(Nc1ccc(Cc2ccncc2)cc1)c1cccs1")
"True"
>>> classification("CN1CCc2c(c3c(n2C)CCN(C)[C@H]3c2ccccc2F)[C@@H]1c1ccccc1F")
"False"
>>> classification("O=S(=O)(Nc1ccc(Cc2ccncc2)cc1)c1ccc(Cl)c(Cl)c1")
"True"
>>> classification("CCCC(=O)Nc1nnc(SCC(=O)NCc2cccs2)s1")
"True"
>>> classification("O=C(Nc1cccc2ncccc12)c1ccc(-c2ccc(Br)cc2)o1")
"True"
>>> classification("N#Cc1cccc(-c2cc(-n3ccnc3)ncn2)c1")
"True"
>>> classification("Nc1nc2c(nc(Br)n2[C@@H]2O[C@H]3COP(=O)(O)O[C@H]3[C@@H]2O)c(=O)[nH]1")
"False"
>>> classification("N#Cc1cccc(-c2nc(N3CCNCC3)c3ccccc3n2)c1")
"False"
>>> classification("c1cn(-c2ccnc(-c3ccc4c(c3)OCO4)n2)cn1")
"True"
>>> classification("COc1ccc(NC(=O)CSc2nnc(C3CC3)n2N)cc1")
"False"
>>> classification("CCc1ccc(N2CC(C(=O)NC3=NCCS3)CC2=O)cc1 (stereo not drawn)")
"True"
>>> classification("O=C(Nc1ccc2nc(-c3ccc(Br)o3)[nH]c2c1)c1ccco1")
"True"
>>> classification("COc1cc(OC)c(C2N(c3cc(C)on3)C(=O)C3CCCN32)cc1OC (stereo not drawn)")
"False"
>>> classification("COc1cccc(-c2nccc(NC3CCNCC3)n2)c1")
"False"

----------
# measured-on: Cytochrome P450 2C19 (Homo sapiens)
# protocol-text: Cytochrome panel assay with activity outcomes
# test-conditions: recombinant CYP, pro-luciferin dealkylation, luminescence, p450-cyp2c19; series mostly up to 57.1 µM
Hit rate of the full screen: of about 16,000 compounds, about 5,800 (36%) were called active. Another 23% or so got no clear call; they are omitted. Calls follow the shape of the dose curve; as a rule, active = well fitted curve in the direction sought with a large enough effect; inconclusive = small, poorly fitted or top-dose-only effect, or effect the other way; inactive = no such curve, though single readings can be large or run the other way. The list shows a part of the results.
Outcomes: active, inactive

>>> classification("N#CCCn1c(=O)c(-c2ccc(F)cc2)nc2cnc(N3CCOCC3)nc21")
"inactive"
>>> classification("CN1CCN(c2nc(-c3ccccc3C(F)(F)F)nc3ccccc23)CC1")
"inactive"
>>> classification("COc1cccc(-c2ccc3ncnc(N4CCNCC4)c3c2)c1")
"active"
>>> classification("CS(=O)(=O)Nc1cccc(-c2ccc3ncnc(N4CCNCC4)c3c2)c1")
"inactive"
>>> classification("Cc1cc(C)nc(NC(=O)/C=C/c2ccc(Cl)cc2Cl)c1")
"active"
>>> classification("N#Cc1cccc(-c2ccc3ncnc(N4CCNCC4)c3c2)c1")
"inactive"

----------
# measured-on: Cytochrome P450 2C19 (Homo sapiens) (UniProt P33261)
# Sequence (P33261 whole entry, looked up): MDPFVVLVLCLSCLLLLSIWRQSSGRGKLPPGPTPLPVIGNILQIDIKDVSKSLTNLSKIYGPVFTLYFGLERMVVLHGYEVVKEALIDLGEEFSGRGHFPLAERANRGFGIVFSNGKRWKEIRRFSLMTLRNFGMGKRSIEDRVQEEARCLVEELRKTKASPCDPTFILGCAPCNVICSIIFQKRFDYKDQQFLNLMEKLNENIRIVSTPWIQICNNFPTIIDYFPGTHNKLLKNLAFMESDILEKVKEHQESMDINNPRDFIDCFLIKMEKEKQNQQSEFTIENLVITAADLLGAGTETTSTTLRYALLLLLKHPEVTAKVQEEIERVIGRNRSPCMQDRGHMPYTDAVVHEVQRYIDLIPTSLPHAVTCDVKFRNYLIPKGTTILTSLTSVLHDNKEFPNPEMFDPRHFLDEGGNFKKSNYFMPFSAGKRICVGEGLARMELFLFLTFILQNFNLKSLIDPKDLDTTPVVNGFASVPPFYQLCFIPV
# protocol-text: Cytochrome panel assay with activity outcomes
# test-conditions: recombinant CYP, pro-luciferin dealkylation, luminescence, p450-cyp2c19; series mostly up to 57.1 µM
The campaign covered roughly 16,000 compounds. About 5,800 (36%) were called active. Another 23% or so got no clear call; they are omitted. Calls follow the shape of the dose curve; as a rule, active = well fitted curve in the direction sought with a large enough effect; inconclusive = small, poorly fitted or top-dose-only effect, or effect the other way; inactive = no such curve, though single readings can be large or run the other way. The list shows a part of the results.
Outcomes: active, inactive

>>> classification("NCCCCCCCCCCNS(=O)(=O)c1cccc2c(Cl)cccc12")
"active"
>>> classification("CCCCNS(=O)(=O)c1ccc(OC)c(Cl)c1Cl")
"active"
>>> classification("NCCCCCCNS(=O)(=O)c1cccc2ccccc12")
"active"
>>> classification("NCCNS(=O)(=O)c1cccc2cnccc12")
"inactive"
>>> classification("O=C1c2ccccc2C2=Nc3ccccc3SC(c3ccccc3F)C12 (configuration not stated)")
"active"
>>> classification("C=CCNS(=O)(=O)c1cccc2cc(C(=O)O)c(O)cc12")
"inactive"
>>> classification("O=S(=O)(NCCCCCCc1ccccc1)c1cccc2c(Cl)cccc12")
"active"
>>> classification("CCOC(=O)N1CCN(c2nc(-c3ccco3)cc(C(F)(F)F)n2)CC1")
"active"
>>> classification("CCNc1ccc(Br)cc(C(=O)/C=C/c2ccc3c(c2)OCO3)c1=O")
"active"
>>> classification("O=[N+]([O-])c1cccc(-c2nc(-c3ccncc3)no2)c1")
"active"
>>> classification("COc1cc(/C=C/C(=O)O)cc(S(=O)(=O)NCCCO)c1OC")
"inactive"
>>> classification("CCOc1ccc(N=C2NC(=O)C(CC(=O)O)S2)cc1 (configuration not stated)")
"inactive"

----------
# measured-on: Cytochrome P450 2C19 (Homo sapiens) (UniProt P33261)
# protocol-text: Cytochrome panel assay with activity outcomes
# test-conditions: recombinant CYP, pro-luciferin dealkylation, luminescence, p450-cyp2c19; series mostly up to 57.1 µM
Hit rate of the full screen: of about 16,000 compounds, about 5,800 (36%) were called active. Not shown: some 23% with an inconclusive outcome. Calls follow the shape of the dose curve; as a rule, active = well fitted curve in the direction sought with a large enough effect; inconclusive = small, poorly fitted or top-dose-only effect, or effect the other way; inactive = no such curve, though single readings can be large or run the other way. Some of the results follow.
Outcomes: t (active), f (inactive)

>>> classification("COc1cccc(Cn2c(=O)c(-c3cc(F)cc(F)c3)nc3cnc(N(C)C)nc32)c1")
"f"
>>> classification("CCN(CC)S(=O)(=O)c1cccc(C(=O)N[C@H](C(=O)OCC(=O)NC(=O)NC)C(C)C)c1")
"t"
>>> classification("O=C1c2cccnc2C(O)N1C1CCCCC1 (configuration not stated)")
"f"
>>> classification("CN(C)c1ncc2nc(CCc3ccccc3)c(=O)n(Cc3cccs3)c2n1")
"t"
>>> classification("CC(=O)SC[C@@H](Cc1ccccc1)C(=O)NCC(=O)OCc1ccccc1")
"t"
>>> classification("O=C(N[C@@H](Cc1ccccc1)C(=O)CCl)OCc1ccccc1")
"t"
>>> classification("Cn1cc(-c2nc3cncnc3n(C3CC3)c2=O)c2ccccc21")
"f"
>>> classification("CNC(=O)c1c(I)c(C(=O)NCC(=O)Nc2c(I)c(C(=O)O)c(I)c(C(=O)NCCO)c2I)c(I)c(N(C)C(C)=O)c1I")
"f"
>>> classification("CC(C)CN1CCC2(CC1)CCN(C(=O)c1cccc(F)c1)CC2")
"f"
>>> classification("O=C(N/N=C/C=C/c1ccccc1)c1cc2c(ccc3ccccc32)o1")
"f"
>>> classification("CC(C)CC(=O)N1CCN(Cc2cccc(F)c2)CC1")
"t"
>>> classification("O=C(O)CNC(=O)[C@@H](CS)Cc1ccccc1")
"f"
>>> classification("CCN(CC)c1ccc(/C=C/c2nc3ccccc3s2)cc1")
"t"
>>> classification("COc1cccc(Cn2c(=O)c(CCc3ccccc3)nc3cnc(N(C)C)nc32)c1")
"t"
>>> classification("c1ccc(CNc2ncncc2-c2ccc3c(c2)OCO3)cc1")
"t"
>>> classification("COc1cccc(Cn2c(=O)c(-c3ccccc3)nc3cnc(N(C)C)nc32)c1")
"f"
>>> classification("CCNc1ncc2nc(CCc3ccccc3)c(=O)n(Cc3cccc(OC)c3)c2n1")
"t"
>>> classification("Cc1nc2c(n1C1CCCCC1)C(=O)c1ccccc1C2=O")
"t"
>>> classification("C1CCc2c(nc3nnnn3c2NC2CCCC2)C1")
"f"
>>> classification("Cc1cnc(CNc2ncncc2-c2ccc3c(c2)OCO3)cn1")
"f"
>>> classification("O=c1c2ccccc2nnn1CSc1nnc(COc2ccc(Cl)cc2)n1Cc1ccco1")
"t"
>>> classification("O=S(=O)(N/N=C\\C=C\\c1ccccc1)c1ccc(Br)cc1")
"t"

----------
# measured-on: Cytochrome P450 2C19 (Homo sapiens) (UniProt P33261)
# protocol-text: Cytochrome panel assay with activity outcomes
# test-conditions: recombinant CYP, pro-luciferin dealkylation, luminescence, p450-cyp2c19; series mostly up to 57.1 µM
Among all 16,000 compounds or so, about 5,800 (36%) were called active. Another 23% or so got no clear call; they are omitted. Calls come from the whole dose curve; as a rule, active = well fitted curve in the direction sought with a large enough effect; inconclusive = small, poorly fitted or top-dose-only effect, or effect the other way; inactive = no such curve, though single readings can be large or run the other way. The list shows a part of the results.
Outcomes: label 1 = active, label 0 = inactive

>>> classification("CC(=O)c1cc(C#N)c(Oc2cccc(C(F)(F)F)c2)nc1C")
"label 1"
>>> classification("Cn1cccc1C(=O)N1CCC2(CCCN(c3ccccc3)C2)CC1")
"label 1"
>>> classification("Cn1cccc1C(=O)N1CCC2(CCCN(c3cccc(-c4ccccc4)c3)C2)CC1")
"label 1"
>>> classification("Cc1nc2c3cnn(-c4ccc(C)c(C)c4)c3ncn2n1")
"label 1"
>>> classification("COc1ccc(-n2c(N)c(C(=O)NCc3ccco3)sc2=S)cc1")
"label 1"
>>> classification("COc1cccc([C@@H]2Oc3ccc(Br)cc3C(=O)[C@H]2O)c1")
"label 1"
>>> classification("c1ccc2sc(NC3=NCN(C4CCCCCC4)CN3)nc2c1")
"label 1"
>>> classification("Cc1ccc2c(C)nc(Nc3nc(CSc4nc5ccccc5[nH]4)cc(=O)[nH]3)nc2c1")
"label 1"
>>> classification("CN1CCCC2(CCN(C(=O)c3cccn3C)CC2)C1")
"label 0"
>>> classification("Brc1ccc(-c2nnc(-c3ccccc3)c(N3CCSCC3)n2)cc1")
"label 1"
>>> classification("Cn1cccc1C(=O)N1CCC2(CCCN(c3ccc(-c4ccccc4)cc3)C2)CC1")
"label 0"
>>> classification("C[C@H](C[C@H](N)C(=O)O)C(=O)O")
"label 0"
>>> classification("COc1cccc(Cn2c(=O)cnc3cnc(Nc4cccc(OC)c4)nc32)c1")
"label 1"
>>> classification("COc1cc(/C=N/NC(N)=O)c(Br)cc1OCC(=O)Nc1ccccc1C")
"label 1"
>>> classification("CCNc1ncc2nc(-c3cccs3)c(=O)n(Cc3cccc(OC)c3)c2n1")
"label 0"
>>> classification("O=c1c(-c2ccc(Cl)cc2)nc2cnc(N3CCOCC3)nc2n1C1CC1")
"label 0"
>>> classification("CCNc1ncc2ncc(=O)n(Cc3cccc(OC)c3)c2n1")
"label 1"
>>> classification("O=c1nc(-c2ccccc2)cc(C(F)(F)F)[nH]1")
"label 0"
>>> classification("COCCn1c(=O)cnc2cnc(Nc3cccc(OC)c3)nc21")
"label 0"
>>> classification("CCNc1ncc2nc(-c3ccc(Cl)cc3)c(=O)n(Cc3cccc(OC)c3)c2n1")
"label 0"
>>> classification("COCCN1CN=C(Nc2nc3ccccc3s2)NC1")
"label 1"
>>> classification("CCNc1ncc2nc(C)c(=O)n(Cc3cccc(OC)c3)c2n1")
"label 1"
>>> classification("COC(=O)c1cc(C#N)c(Oc2ccc(OC)cc2)nc1C")
"label 1"
